Biological target: T1, murine IL-22 (murine, UniProt Q9JJY9 34-179)
T1 construct: also called mouse IL-22
T1 sequence: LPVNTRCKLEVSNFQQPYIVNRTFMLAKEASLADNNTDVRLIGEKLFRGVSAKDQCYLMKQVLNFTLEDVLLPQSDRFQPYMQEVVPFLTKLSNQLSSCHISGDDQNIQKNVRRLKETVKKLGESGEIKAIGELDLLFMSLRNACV
Test: ELISA: plate coated with 1 µg/ml antigen, IgG at 1 µg/ml, HRP anti-human IgG, A450
QUANTITY MEASURED: binding result

{"BINDER": "355B06 germlined IgG (antibody, V domains shown) VH: QVQLVQSGAEVKKPGASVKVSCKASGYTFTDYYMHWVRQAPGQGLEWVGWINPYTGSAFYAQKFRGRVTMTRDTSISTAYMELSRLRSDDTAVYYCAREPEKFGESSGQLWGRGTLVTVSS VL: QAVLTQPPSVSGAPGQRVTISCTGSSSNIGAGYGVHWYQQLPGTAPKLLIYGDSNRPSGVPDRFSGSKSGTSASLAITGLQAEDEADYYCQSYDSGLSGYVFGGGTQLTVLG", "VAL": "binds"}
